Sox 17 Intensity % of control values by entry
# System: H1 or H9 human embryonic stem cells
# assay.summary: Activin A bioassay: differentiation of human embryonic stem cells to definitive endoderm, cell number and SOX17 intensity by high content analysis (96-well, four days)
# Format: cell-based
# cond: supernatant concentration 1x, assay dilution 1:20; control = R&D Sys Activin A 100 ng/ml on same plate
readout.name: Sox 17 Intensity % of control

- molecule: "ACTN6: activin A variant peptide, SEQ ID 7 (protein, Sytnthetic Construct) GLECDGKVNLCCKKQWFVSFKDIGWNDWIIAPSGYHANRCSGKCPSHIAGTSGSSLSFHSTVINHYRMRGHSPFADMGACCIPTKLRPMSMLYYDDGQNIIKKDIQNMIVEECGCS"
  observed.value: "6.7%"
- molecule: "ACTN18: activin A variant peptide, SEQ ID 19 (protein) GLECDGKVNYCCKKQNFVSFKDIGWNDWIIAPSGYHANKCSGKCPSHIAGTSGSSLSFHSTVINHYRMRGHSPFSDMGACCIPTKLRPMSMLYYDDGQNIIKKDIQNMIVEECGCS"
  observed.value: "2.2%"
- molecule: "ACTN14: activin A variant peptide, SEQ ID 15 (protein) GLECDGKVNLCCKKQHFVSFKDIGWNDWIIAPSGYHANRCDGLCPSHIAGTSGSSLSFHSTVINHYRMRGHSPFAQMGSCCVPTKLRPMSMLYYDDGQNIIKKDIQNMIVEECGCS"
  observed.value: "5.8%"
- molecule: "ACTN64: activin A variant peptide, SEQ ID 65 (protein) GLECDGKVNICCKKQSFGQTKDIGWNDWIIAPSGYHGGGCSGECPSHIAGTSGSSLSFHSTVINHYRMRGHSPWANLKSCCSPTKLRPMSMLYYDDGQNIIKKDIQGMVVEECGCT"
  observed.value: "4.4%"
- molecule: "ACTN44: activin A variant peptide, SEQ ID 45 (protein) GLECDGKVNLCCKKQNFVSFKDIGWNDWIIAPSGYHANECSGKCPSHIAGTSGSSLSFHSTVINHYRMRGHSPFSDMGACCIPTKLRPMSMLYYDDGQNIIKKDIQNMIVEECGCS"
  observed.value: "0.5%"
- molecule: "ACTN35: activin A variant peptide, SEQ ID 36 (protein) GLECDGKVNLCCKKQDFVSFKDIGWNDWIIAPSGYHANRCSGKCPSHIAGTSGSSLSFHSTVINHYRMRGHSPFSDMGSCCVPTKLRPMSMLYYDDGQNIIKKDIQNMIVEECGCS"
  observed.value: "0.3%"
- molecule: "ACTN28: activin A variant peptide, SEQ ID 29 (protein) GLECDGKVNYCCKKQLFVSFKDIGWNDWIIAPSGYHANHCSGKCPSHIAGTSGSSLSFHSTVINHYRMRGHSPFANMGSCCIPTKLRPMSMLYYDDGQNIIKKDIQNMIVEECGCS"
  observed.value: "12.6%"
